# Target of assay: Aurora kinase A (Homo sapiens)
# Sequence (O14965 whole entry): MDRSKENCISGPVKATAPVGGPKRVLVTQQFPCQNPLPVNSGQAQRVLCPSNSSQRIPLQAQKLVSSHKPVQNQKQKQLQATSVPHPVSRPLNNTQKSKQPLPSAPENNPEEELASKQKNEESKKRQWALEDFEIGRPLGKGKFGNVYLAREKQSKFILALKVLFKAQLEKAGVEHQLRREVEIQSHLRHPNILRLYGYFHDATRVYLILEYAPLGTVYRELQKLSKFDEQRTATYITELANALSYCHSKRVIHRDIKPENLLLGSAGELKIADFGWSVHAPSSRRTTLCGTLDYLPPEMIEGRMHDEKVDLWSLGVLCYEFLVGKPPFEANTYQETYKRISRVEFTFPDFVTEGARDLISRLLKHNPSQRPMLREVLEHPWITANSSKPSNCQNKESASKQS
# Assay info: Inhibition of human recombinant Aurora A kinase using biotinylated peptide substrate preincubated for 15 mins with compound measured after 30 mins by fluorescence analysis
pIC50: −log10 of the molar value.
Experimental readout: pIC50

O=C(Nc1ccccc1)c1cn(-c2ccccc2)nc1-c1ccc(Cl)cc1 = 5.68
O=C(Nc1ccc(Br)cc1)c1cn(-c2ccccc2)nc1-c1ccc(Cl)cc1 = 5.24
CCOc1ccc(NC(=O)c2cn(-c3ccccc3)nc2-c2ccc(OC)cc2)cc1 = 6.11
Cc1ccc(-c2nn(-c3ccccc3)cc2C(=O)Nc2ccc(Cl)cc2)cc1 = 5.32
O=C(Nc1ccc(Cl)cc1)c1cn(-c2ccccc2)nc1-c1ccc([N+](=O)[O-])cc1 = 5.52

P: COc1ccc(-c2nn(-c3ccccc3)cc2C(=O)Nc2ccc(Br)cc2)cc1
Q: O=C(Nc1ccc(Cl)cc1)c1cn(-c2ccccc2)nc1-c1ccccc1
Could you check which of P and Q has a smaller value for pIC50? Selection: enter the item's label.
P

P: O=C(Nc1ccccc1)c1cn(-c2ccccc2)nc1-c1ccc([N+](=O)[O-])cc1
Q: COc1ccc(NC(=O)c2cn(-c3ccccc3)nc2-c2ccc(Cl)cc2)cc1
Form field 'greater pIC50' accepts P or Q ; which applies? Pick one; state its label.
Q
(Q: 6.08, P: 5.68)
